# System tested: hCB1 (Homo sapiens, UniProt P21554)
# Sequence (P21554 whole entry): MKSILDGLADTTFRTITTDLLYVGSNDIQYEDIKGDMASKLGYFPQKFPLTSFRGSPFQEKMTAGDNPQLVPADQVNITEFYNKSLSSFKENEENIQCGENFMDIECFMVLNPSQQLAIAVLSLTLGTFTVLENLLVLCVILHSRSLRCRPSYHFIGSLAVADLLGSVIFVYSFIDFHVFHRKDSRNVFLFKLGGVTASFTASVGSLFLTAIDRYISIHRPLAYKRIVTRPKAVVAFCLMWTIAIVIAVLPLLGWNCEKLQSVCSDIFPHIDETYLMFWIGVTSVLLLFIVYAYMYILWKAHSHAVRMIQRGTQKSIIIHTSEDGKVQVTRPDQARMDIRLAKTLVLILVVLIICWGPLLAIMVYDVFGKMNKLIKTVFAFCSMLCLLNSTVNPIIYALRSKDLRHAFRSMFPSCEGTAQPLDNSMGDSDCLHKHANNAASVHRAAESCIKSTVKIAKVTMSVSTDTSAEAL
# Protocol description: bioSensAll ebBRET signaling profiling, hCB1
# Type: cell-based
# Set-up: host or cells: HEK293SL cells, transient PEI transfection
# Measurement conditions: Log [Compound] (M) -4.22186; single replicate values, FigS6a
Measurement name: Gi1 hCB1

In [3]: df
Out[3]:
                                    molecule  reported
 0  COC(=O)[C@@H]1[C@@H]2CCC[C@@H]2CN1C(=O)c1cc(C)n(-c2cccc(Cl)c2)n1 (racemic)   75.9694
 1  COC(=O)[C@@H]1[C@@H]2CCC[C@@H]2CN1C(=O)c1cc(C)n(-c2cccc(C(F)(F)F)c2)n1   102.871
 2  Cc1cc(C(=O)N2CC3(CCC3)[C@@H]2[C@@H]2CCCO2)nn1-c1cccc(C(F)(F)F)c1    -5.415
 3  Cc1cc(C(=O)N(C)C(c2ccccc2)c2ccco2)nn1-c1cccc(C(F)(F)F)c1 (centres unmarked)    -9.361
 4  COC(=O)C(NC(=O)c1cc(C)n(-c2cccc(F)c2)n1)c1cccs1 (centres unmarked)   75.4915
 5  COC(=O)[C@@H]1[C@@H]2CC[C@@H]2CN1C(=O)c1cc(C)n(-c2cccc(C(F)(F)F)c2)n1   89.2431
 6  Cn1nc(-c2nnc(C(C)(C)Oc3ccc(Cl)cc3)o2)c2ccccc2c1=O    20.433
 7  Cc1nc(CC2CC2)oc1-c1nc(Cc2cc3c(cc2Br)OCO3)no1    -7.329
 8  Cc1cc(C(=O)N2CC3(CCC3)[C@H]2[C@@H]2CCCO2)nn1-c1cccc(C(F)(F)F)c1   94.6851
 9  Brc1cc2c(cc1Cc1noc(-c3cnn(CC4CC4)c3)n1)OCO2  -12.5553
10  COC(=O)C(NC(=O)c1cc(C)n(-c2cccc(C(F)(F)F)c2)n1)c1cccs1 (centres unmarked)   97.0901
11  Cn1nc(-c2nnc(C(C)(C)Oc3ccc(C(F)(F)F)cc3)o2)c2ccccc2c1=O   75.7197
12  Cc1cc(C(=O)N2CC3(CCC3)[C@H]2[C@H]2CCCO2)nn1-c1cccc(C(F)(F)F)c1   86.9769
13  Cc1cc(C(=O)NC(c2ccco2)c2ccco2)nn1-c1cccc(C(F)(F)F)c1   93.2514

---

# System tested: UniProt P21554
# Protocol description: bioSensAll ebBRET signaling profiling, hCB1
# Format: cell-based
# Set-up: host or cells: HEK293SL cells, transient PEI transfection
# Measurement conditions: Log [Compound] (M) -11.0177; single replicate values, FigS6a
Measurement name: Gi1 hCB1

>>> print(df.to_string())
                                   compound  reported
0  COc1cccc(C(NC(=O)c2cc(C)n(-c3cccc(C(F)(F)F)c3)n2)c2ccco2)c1 (centres unmarked)     2.525
1  Cc1cc(C(=O)N2CC3(CCC3)[C@H]2[C@@H]2CCCO2)nn1-c1cccc(C(F)(F)F)c1    1.5536
2  Cc1cc(C(=O)NC(c2ccccc2)c2ccco2)nn1-c1cccc(C#N)c1 (centres unmarked)    -1.067
3  COC(=O)[C@@H]1[C@@H]2CCC[C@@H]2CN1C(=O)c1cc(C)n(-c2cccc(C(F)(F)F)c2)n1    -0.651
4  COC(=O)C(NC(=O)c1cc(C)n(-c2cccc(C(F)(F)F)c2)n1)c1cccs1 (centres unmarked)     1.677
5  Cc1nc(CC2CC2)oc1-c1nc(Cc2cc3c(cc2Br)OCO3)no1    0.2092
6  Brc1cc2c(cc1Cc1noc(-c3cnn(CC4CC4)c3)n1)OCO2    -1.058
7  Cc1cc(C(=O)N(C)C(c2ccco2)c2ccco2)nn1-c1cccc(C(F)(F)F)c1       1.6
